- tgt: Cytochrome P450 2C19 (Homo sapiens) (UniProt P33261)
- Sequence (P33261 whole entry, looked up): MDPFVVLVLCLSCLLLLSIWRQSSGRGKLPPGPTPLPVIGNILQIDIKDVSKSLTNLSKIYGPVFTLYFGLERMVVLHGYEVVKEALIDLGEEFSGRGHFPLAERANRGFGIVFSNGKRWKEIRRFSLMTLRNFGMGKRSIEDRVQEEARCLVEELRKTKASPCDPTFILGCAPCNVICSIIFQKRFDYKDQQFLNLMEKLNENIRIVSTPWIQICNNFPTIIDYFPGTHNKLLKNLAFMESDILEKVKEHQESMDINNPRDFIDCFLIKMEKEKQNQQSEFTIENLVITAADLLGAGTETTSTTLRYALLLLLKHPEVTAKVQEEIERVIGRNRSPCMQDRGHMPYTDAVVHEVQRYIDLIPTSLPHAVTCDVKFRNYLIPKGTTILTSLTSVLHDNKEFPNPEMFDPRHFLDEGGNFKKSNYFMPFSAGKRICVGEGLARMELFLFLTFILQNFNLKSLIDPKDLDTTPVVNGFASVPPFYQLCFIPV
- experiment: Cytochrome panel assay with activity outcomes
- conditions used: recombinant CYP, pro-luciferin dealkylation, luminescence, p450-cyp2c19; series mostly up to 57.1 µM
About 5,800 (36%) of roughly 16,000 compounds were called active. About 23% were inconclusive and are not listed. The call rests on the fitted dose curve; in most records, active means well fitted curve in the direction sought with a large enough effect; inconclusive means small, poorly fitted or top-dose-only effect, or effect the other way; inactive means no such curve, though single readings can be large or run the other way. Some of the results follow.
Reply using exactly one outcome from active, inactive

{"smiles repr": "CC(C)NCCOCCSc1ccc(Cl)cc1", "category": "active"}

**Query** Dear colleague, could you share the recorded outcome for Cc1cc(Cc2cc(Cc3cc(C)cc(C(C)(C)C)c3O)c(C)cc2C)c(O)c(C(C)(C)C)c1 when you have a moment?
**Result** active

**Query** Dear colleague, could you share the recorded outcome for CCOc1ccc(C(=O)Nc2ccccc2N2CCCC2)cc1 when you have a moment?
**Result** active

**Query** Dear colleague, could you share the recorded outcome for CN[C@H]1[C@@H](O[C@@H]2[C@H](O[C@@H]3[C@@H](O)[C@@H](O)[C@@H](N=C(N)N)[C@@H](O)[C@@H]3N=C(N)N)O[C@H](C)[C@@]2(O)C=O)O[C@@H](CO)[C@@H](O)[C@H]1O when you have a moment?
**Result** inactive
